The measured values listed here are drawn from ChEMBL document CHEMBL1140591.

Provide the recorded MIC for the entries that follow.
- Test system: Staphylococcus aureus
- EXPERIMENT_DESCRIPTION: Antibacterial activity against Staphylococcus aureus
- Format: functional

Which MIC value is on record for "COC(=O)N/C=C/CCCc1cc(O)c(C(=O)/C=C/c2ccc3[nH]ccc3c2)c(=O)o1" ?
> 64 µg/mL

Which MIC value is on record for CCCC/C(C)=C/C=C(\C)C(=O)c1ccc(C(C)CC/C=C/NC(=O)OC)cc1O (stereo not given) ?
> 64 µg/mL

Hey, can you go through the list below and give me MIC for every item?
1. COC(=O)N/C=C/CCC(C)c1cc(O)c(C(=O)NC/C=C(\C)CCC=C(C)C)c(=O)o1 (stereo not given)
2. CCCC/C(C)=C/C=C(\C)C(=O)c1c(O)cc(CCC/C=C/NC(=O)OC)oc1=O
3. CCCC/C(C)=C/C=C(\C)C(=O)c1c(O)cc(CCC/C=C/NC(=O)OC)n(C)c1=O
4. CCCCCCCCC(=O)c1c(O)cc(CCC/C=C/NC(=O)OC)oc1=O

1. > 64 µg/mL
2. 4 µg/mL
3. > 64 µg/mL
4. > 64 µg/mL

Hey, can you go through the list below and give me MIC for every item?
1. COC(=O)N/C=C/CCCc1cc(O)c(C(=O)/C(C)=C\c2ccco2)c(=O)o1
2. CCCC/C(C)=C/C=C(\C)C(=O)c1c(O)cc(C(C)CC/C=C/NC(=O)OC)n(C)c1=O (stereo not given)

> 64 µg/mL
> 64 µg/mL

Hey, can you go through the list below and give me MIC for every item?
1. CCCCCC(=O)c1c(O)cc(CCC/C=C/NC(=O)OC)oc1=O
2. CCCC/C(C)=C/C=C(\C)C(=O)c1c(O)cc([C@H](C)CC/C=C/NC(=O)OC)oc1=O

["> 64 µg/mL", "1 µg/mL"]
